- Substrate: N[C@@H](Cc1c[nH]c2ccccc12)C(=O)O
- method: HPLC end-point assay, Michaelis-Menten fit
- Assay type: biochemical, Micromonospora olivasterospora
- experimental_conditions: 2 mM DMAPP, 50 mM Tris pH 8.0, 37 °C
Entries annotated with measured kcat/Km
endpoint_label: kcat/Km (M⁻¹ s⁻¹)

{"columns": ["protein", "endpoint_label", "unit_annotation", "meas_value"],
 "data": [
  ["6DMATSmo (Micromonospora olivasterospora; H329Y/Y277H) (protein) MAGLSVSDHLDGQLARLCEVAGADPVEPRNLLAGLLGPVGPRPLYEPPAWPSGVSDDHTPVEFSIAFNEAEPPTLRILGETLGSPPGPLANLSATRGFLDAQARRAGLSTSRLDSVRDLFATDDPQGDFAMWCSLVFRSSRRPEFKVYLNPEVKGVERSPALVSEALHRLGLGASYRALLDHGVRPGELGRGDRLTFFAVDLHDGPQARVKLYLTHHEAEVWDVTRAASVVDGVDVAEIEEFCVVAGGGTRRFDGRPLVGSYTFTEGADRPVGYSIHVPIRSYVTDDQEARDRVAALLVRYGFDTDGLDRAIAAVTPRPLRDGVGLIAYVSLRLGAPRPGVTVYLSAEAYRVSPPRPRRMPAGRDVSPAPVGRTRP", "kcat/Km", "M⁻¹ s⁻¹", 1.82],
  ["6DMATSmo (Micromonospora olivasterospora; Y277H) (protein) MAGLSVSDHLDGQLARLCEVAGADPVEPRNLLAGLLGPVGPRPLYEPPAWPSGVSDDHTPVEFSIAFNEAEPPTLRILGETLGSPPGPLANLSATRGFLDAQARRAGLSTSRLDSVRDLFATDDPQGDFAMWCSLVFRSSRRPEFKVYLNPEVKGVERSPALVSEALHRLGLGASYRALLDHGVRPGELGRGDRLTFFAVDLHDGPQARVKLYLTHHEAEVWDVTRAASVVDGVDVAEIEEFCVVAGGGTRRFDGRPLVGSYTFTEGADRPVGYSIHVPIRSYVTDDQEARDRVAALLVRYGFDTDGLDRAIAAVTPRPLRDGVGLIAHVSLRLGAPRPGVTVYLSAEAYRVSPPRPRRMPAGRDVSPAPVGRTRP", "kcat/Km", "M⁻¹ s⁻¹", 2.83],
  ["6DMATSmo (Micromonospora olivasterospora) (protein) MAGLSVSDHLDGQLARLCEVAGADPVEPRNLLAGLLGPVGPRPLYEPPAWPSGVSDDHTPVEFSIAFNEAEPPTLRILGETLGSPPGPLANLSATRGFLDAQARRAGLSTSRLDSVRDLFATDDPQGDFAMWCSLVFRSSRRPEFKVYLNPEVKGVERSPALVSEALHRLGLGASYRALLDHGVRPGELGRGDRLTFFAVDLHDGPQARVKLYLTHHEAEVWDVTRAASVVDGVDVAEIEEFCVVAGGGTRRFDGRPLVGSYTFTEGADRPVGYSIYVPIRSYVTDDQEARDRVAALLVRYGFDTDGLDRAIAAVTPRPLRDGVGLIAHVSLRLGAPRPGVTVYLSAEAYRVSPPRPRRMPAGRDVSPAPVGRTRP", "kcat/Km", "M⁻¹ s⁻¹", 277]
]}
